Items are presented alongside their recorded Kd.
- testedOn: MAP kinase-activated protein kinase 2 (Homo sapiens)
- Sequence (P49137 whole entry): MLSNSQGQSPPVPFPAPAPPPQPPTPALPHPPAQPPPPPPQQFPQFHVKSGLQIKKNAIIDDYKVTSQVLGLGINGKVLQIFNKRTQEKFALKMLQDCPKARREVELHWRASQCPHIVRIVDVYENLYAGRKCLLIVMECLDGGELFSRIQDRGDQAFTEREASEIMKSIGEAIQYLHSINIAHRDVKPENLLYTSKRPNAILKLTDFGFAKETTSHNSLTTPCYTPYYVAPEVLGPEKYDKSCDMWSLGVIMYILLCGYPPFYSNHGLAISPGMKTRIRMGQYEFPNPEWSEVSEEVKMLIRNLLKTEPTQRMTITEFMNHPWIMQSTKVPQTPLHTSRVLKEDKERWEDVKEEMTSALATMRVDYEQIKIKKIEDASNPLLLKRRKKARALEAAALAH
Activity calls are given as the source filed them.

Below, each entry is followed by its recorded Kd result.
INSERT INTO measurements (molecule, testedon, result) VALUES
  ('CNC(=O)c1ccc(-c2cnc3ncc(Cc4ccc5ncccc5c4)n3n2)cc1F [CAPMATINIB]', 'MAP kinase-activated protein kinase 2 (Homo sapiens)', '> 30 µM (inactive)'),
  ('COc1cc(N2CCC(N3CCN(C)CC3)CC2)ccc1Nc1ncnc(Nc2ccccc2S(=O)(=O)C(C)C)n1 [ASP-3026]', 'MAP kinase-activated protein kinase 2 (Homo sapiens)', '> 30 µM (inactive)'),
  ('CN1CCC(CNc2ccc3ncc(-c4cccc(OC(F)(F)F)c4)n3n2)CC1 [SGI-1776]', 'MAP kinase-activated protein kinase 2 (Homo sapiens)', '> 30 µM (inactive)');

Kindly review the next molecule as well.
So what Kd did O=c1sn(-c2cccc3ccccc23)c(=O)n1Cc1ccccc1 [TIDEGLUSIB] get with MAP kinase-activated protein kinase 2 (Homo sapiens)?
> 30 µM (inactive)

====

- testedOn: UniProtKB Q02880
- Sequence (Q02880 whole entry): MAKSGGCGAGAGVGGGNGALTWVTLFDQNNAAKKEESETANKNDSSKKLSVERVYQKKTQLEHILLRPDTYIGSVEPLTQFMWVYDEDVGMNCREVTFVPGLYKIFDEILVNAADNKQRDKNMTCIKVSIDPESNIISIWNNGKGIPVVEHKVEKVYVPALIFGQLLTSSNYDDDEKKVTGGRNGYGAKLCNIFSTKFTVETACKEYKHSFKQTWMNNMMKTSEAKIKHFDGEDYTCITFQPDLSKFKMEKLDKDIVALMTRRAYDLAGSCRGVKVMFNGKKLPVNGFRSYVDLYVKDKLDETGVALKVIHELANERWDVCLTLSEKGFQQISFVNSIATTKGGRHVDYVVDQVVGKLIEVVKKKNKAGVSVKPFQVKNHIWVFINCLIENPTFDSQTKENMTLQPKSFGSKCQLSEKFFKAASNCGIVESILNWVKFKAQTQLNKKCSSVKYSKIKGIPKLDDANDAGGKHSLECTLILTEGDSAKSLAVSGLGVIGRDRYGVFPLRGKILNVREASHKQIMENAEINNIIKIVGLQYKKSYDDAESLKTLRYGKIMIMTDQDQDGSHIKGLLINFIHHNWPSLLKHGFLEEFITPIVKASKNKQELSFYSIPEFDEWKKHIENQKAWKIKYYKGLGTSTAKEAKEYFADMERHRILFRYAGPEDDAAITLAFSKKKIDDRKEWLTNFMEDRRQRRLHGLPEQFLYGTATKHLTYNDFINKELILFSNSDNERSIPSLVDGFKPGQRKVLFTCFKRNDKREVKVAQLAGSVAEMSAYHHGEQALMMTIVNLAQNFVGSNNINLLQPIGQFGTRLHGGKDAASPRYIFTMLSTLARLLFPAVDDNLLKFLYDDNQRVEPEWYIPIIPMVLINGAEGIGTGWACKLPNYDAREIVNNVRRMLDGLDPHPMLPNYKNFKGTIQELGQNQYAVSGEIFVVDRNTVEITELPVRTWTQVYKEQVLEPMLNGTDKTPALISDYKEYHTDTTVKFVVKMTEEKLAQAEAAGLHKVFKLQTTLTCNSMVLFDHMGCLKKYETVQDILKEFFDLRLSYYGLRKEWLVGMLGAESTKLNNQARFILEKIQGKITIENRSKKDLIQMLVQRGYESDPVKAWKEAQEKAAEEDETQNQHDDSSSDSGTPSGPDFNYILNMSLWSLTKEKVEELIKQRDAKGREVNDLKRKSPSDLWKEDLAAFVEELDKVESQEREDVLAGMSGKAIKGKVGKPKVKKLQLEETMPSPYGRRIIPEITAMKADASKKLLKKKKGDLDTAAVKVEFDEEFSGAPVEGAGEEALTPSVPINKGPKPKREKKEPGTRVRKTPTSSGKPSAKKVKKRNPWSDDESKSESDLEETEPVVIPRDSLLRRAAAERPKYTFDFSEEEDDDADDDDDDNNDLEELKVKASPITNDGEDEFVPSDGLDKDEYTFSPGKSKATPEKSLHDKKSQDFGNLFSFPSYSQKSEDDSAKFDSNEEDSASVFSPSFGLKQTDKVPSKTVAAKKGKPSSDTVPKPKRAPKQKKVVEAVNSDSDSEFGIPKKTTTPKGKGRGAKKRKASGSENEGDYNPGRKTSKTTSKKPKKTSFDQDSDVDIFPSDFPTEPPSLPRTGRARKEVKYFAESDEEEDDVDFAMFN
Active and inactive are the calls of the source.
Tick one outcome: true (1) = active, false (0) = inactive

Previously resolved entries follow.
INSERT INTO assay_data (compound, classification) VALUES
  ('C1=C/COCc2cc(ccc2OCCN2CCCC2)Nc2nccc(n2)-c2cccc(c2)COC/1', 'false (0)'),
  ('CCn1c(=O)c(-c2cc[nH]n2)cc2c(C)nc(N)nc21', 'false (0)'),
  ('CNC(=O)CN1CCC(Oc2cc3c(Nc4cccc(Cl)c4F)ncnc3cc2OC)CC1', 'false (0)'),
  ('CCc1cnn2c(NCc3ccc[n+]([O-])c3)cc(N3CCCC[C@H]3CCO)nc12', 'false (0)'),
  ('OCCn1cc(-c2cnc3nnn(Cc4ccc5ncccc5c4)c3n2)cn1', 'false (0)'),
  ('O=c1sn(-c2cccc3ccccc23)c(=O)n1Cc1ccccc1', 'false (0)'),
  ('CC[C@H](Nc1ncnc2[nH]cnc12)c1nc2cccc(F)c2c(=O)n1-c1ccccc1', 'false (0)'),
  ('COc1ccc(-c2ccc3c(N4CCOC[C@@H]4C)nc(N4CCOC[C@@H]4C)nc3n2)cc1CO', 'false (0)');

Write down the call the test reported for this compound. Item: O=C(O)[C@]1(Cc2cccc(Nc3nccs3)n2)CC[C@@H](Oc2cccc(Cl)c2F)CC1
false (0)

What classification did Cc1ccc(NC(=O)c2ccc(CN3CC[C@H](N(C)C)C3)c(C(F)(F)F)c2)cc1Nc1nccc(-c2cncnc2)n1 end up with in this test?
false (0)

What is the recorded call for this compound in the test? Cn1ncc(Cl)c1-c1cc(C(=O)N[C@H](CN)Cc2cccc(F)c2)sc1Cl
false (0)

What was the test verdict on CN1CC[C@@H](c2c(O)cc(O)c3c(=O)cc(-c4ccccc4Cl)oc23)[C@@H]1CO ?
false (0)

What did this assay record as the result for CC(=O)Nc1cccc(-n2c(=O)n(C3CC3)c(=O)c3c(Nc4ccc(I)cc4F)n(C)c(=O)c(C)c32)c1 ?
false (0)

What call does the record list for CN(C)C(=O)c1cc2cnc(Nc3ccc(N4CCNCC4)cn3)nc2n1C1CCCC1 ?
false (0)

Please share the test call associated with Cc1cc2c(F)c(Oc3ncnn4cc(OC[C@@H](C)OC(=O)[C@H](C)N)c(C)c34)ccc2[nH]1 [BRIVANIB ALANINATE] .
false (0)

GET /call?item= O=C(Nc1cccc(Cl)c1)Nc1ncc(CCNc2ncnc3ccsc23)s1 returns the recorded outcome of this test.
false (0)
